target: glucagon receptor (human, UniProt P47871 26-477); assay: cell-based or functional assay
Sequence (P47871 26-477): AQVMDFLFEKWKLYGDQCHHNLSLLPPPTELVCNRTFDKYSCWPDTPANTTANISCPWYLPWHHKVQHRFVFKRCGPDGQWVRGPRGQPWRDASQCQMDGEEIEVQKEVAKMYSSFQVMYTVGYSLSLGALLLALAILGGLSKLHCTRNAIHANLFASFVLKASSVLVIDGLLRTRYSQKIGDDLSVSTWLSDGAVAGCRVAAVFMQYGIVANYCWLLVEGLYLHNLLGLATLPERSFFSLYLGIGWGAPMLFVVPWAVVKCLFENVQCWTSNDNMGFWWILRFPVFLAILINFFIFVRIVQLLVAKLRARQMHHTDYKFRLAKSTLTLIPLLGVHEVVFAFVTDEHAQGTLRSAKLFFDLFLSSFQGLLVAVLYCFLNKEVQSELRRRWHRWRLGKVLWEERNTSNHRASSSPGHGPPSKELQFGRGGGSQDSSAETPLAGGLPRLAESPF
*1 amine or outer side, *2 acyl side, *3 side chain or, on linkers, in order; H or OH if unused. Where no end group is shown, it is not given here. Side-chain parts run from the residue outwards. The star is where a group is joined. C18 diacid = O=C(O)CCCCCCCCCCCCCCCCC(=O)*; C16 diacid = O=C(O)CCCCCCCCCCCCCCC(=O)*; γGlu = O=C(O)[C@H](CCC(=O)[*:2])N[*:1]; AEEA = NCCOCCOCC(=O)O
experimentalReadout: Assay (I) Glucagon [EC50] (nM)
Field: numeric (nM). Do not append units.

Take a look at these entries with their results.
Problem: Entry HSQGTFTSDVSKYLDLRRAQEFVK([γGlu-AEEA-AEEA-γGlu-γGlu-C18 diacid])WLLST : reported Assay (I) Glucagon [EC50] = ?
Solution: 0.088

Problem: And the next one, HSQGTFTSDYSRYLDARRAQDFVK([γGlu-γGlu-AEEA-AEEA-γGlu-C18 diacid])WLLST ?
Solution: 0.158

Problem: And the next one, HSQGTFTSDYSRYLDLRRAQDFVK([γGlu-γGlu-AEEA-AEEA-γGlu-C18 diacid])WLLAT ?
Solution: 0.253

Problem: And the next one, HSQGTFTSDYSRYLDARRAQDFVK([γGlu-γGlu-γGlu-γGlu-C16 diacid])WLLST ?
Solution: 0.106

# next binder below
Problem: Entry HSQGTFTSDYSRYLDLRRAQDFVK([γGlu-γGlu-AEEA-AEEA-γGlu-C18 diacid])WLLGT : reported Assay (I) Glucagon [EC50] = ?
Solution: 0.47
